targetEntity: glucagon receptor (UniProt P47871 26-477, limits assumed)
Sequence (P47871 26-477 limits assumed): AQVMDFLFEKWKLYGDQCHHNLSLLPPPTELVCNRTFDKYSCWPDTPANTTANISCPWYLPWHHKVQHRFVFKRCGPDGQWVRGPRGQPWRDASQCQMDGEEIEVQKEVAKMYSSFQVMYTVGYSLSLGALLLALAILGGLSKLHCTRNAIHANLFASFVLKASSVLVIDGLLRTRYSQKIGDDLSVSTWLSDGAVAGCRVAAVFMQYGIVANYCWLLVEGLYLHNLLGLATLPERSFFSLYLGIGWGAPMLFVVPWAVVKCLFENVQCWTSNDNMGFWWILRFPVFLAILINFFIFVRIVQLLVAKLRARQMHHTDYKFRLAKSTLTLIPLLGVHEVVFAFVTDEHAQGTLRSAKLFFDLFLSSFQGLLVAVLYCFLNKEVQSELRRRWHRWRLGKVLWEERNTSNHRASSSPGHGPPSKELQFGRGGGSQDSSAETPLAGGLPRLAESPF
measurementDescription: cell-based or functional assay
Where no end group is shown, it is not given here. [ ]: non-standard residue; d: D form. 40K‑TE = not defined here; Aib = CC(C)(N)C(=O)O
quantityName: EC50 (cAMP reporter)

-- ask Item Y[Aib]EGTFISDYSIYLDKQAA[Aib]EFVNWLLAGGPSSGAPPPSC(40K‑TE)-NH2 (not fully specified; reading uncertain) [peptide of SEQ ID NO: 72] has what recorded EC50 (cAMP reporter)?
-- reply 1.68 nM
